Target Or System: T1, Recombinant human CDK9/cyclin T1 (Homo sapiens, UniProt P50750)
T1 construct: purchased Carna bioscience 04-110
T1 sequence (P50750 whole entry): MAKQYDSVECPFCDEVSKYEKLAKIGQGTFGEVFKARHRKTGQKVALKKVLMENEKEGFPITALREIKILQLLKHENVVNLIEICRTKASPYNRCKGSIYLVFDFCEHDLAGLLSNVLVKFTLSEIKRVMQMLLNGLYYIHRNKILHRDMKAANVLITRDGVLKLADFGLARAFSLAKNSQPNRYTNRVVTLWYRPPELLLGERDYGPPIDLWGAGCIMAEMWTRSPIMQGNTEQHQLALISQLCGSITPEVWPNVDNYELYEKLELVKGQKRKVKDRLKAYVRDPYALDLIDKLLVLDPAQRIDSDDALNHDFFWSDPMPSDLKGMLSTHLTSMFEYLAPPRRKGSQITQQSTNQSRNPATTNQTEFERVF
T1 sequence (O60563 whole entry partner): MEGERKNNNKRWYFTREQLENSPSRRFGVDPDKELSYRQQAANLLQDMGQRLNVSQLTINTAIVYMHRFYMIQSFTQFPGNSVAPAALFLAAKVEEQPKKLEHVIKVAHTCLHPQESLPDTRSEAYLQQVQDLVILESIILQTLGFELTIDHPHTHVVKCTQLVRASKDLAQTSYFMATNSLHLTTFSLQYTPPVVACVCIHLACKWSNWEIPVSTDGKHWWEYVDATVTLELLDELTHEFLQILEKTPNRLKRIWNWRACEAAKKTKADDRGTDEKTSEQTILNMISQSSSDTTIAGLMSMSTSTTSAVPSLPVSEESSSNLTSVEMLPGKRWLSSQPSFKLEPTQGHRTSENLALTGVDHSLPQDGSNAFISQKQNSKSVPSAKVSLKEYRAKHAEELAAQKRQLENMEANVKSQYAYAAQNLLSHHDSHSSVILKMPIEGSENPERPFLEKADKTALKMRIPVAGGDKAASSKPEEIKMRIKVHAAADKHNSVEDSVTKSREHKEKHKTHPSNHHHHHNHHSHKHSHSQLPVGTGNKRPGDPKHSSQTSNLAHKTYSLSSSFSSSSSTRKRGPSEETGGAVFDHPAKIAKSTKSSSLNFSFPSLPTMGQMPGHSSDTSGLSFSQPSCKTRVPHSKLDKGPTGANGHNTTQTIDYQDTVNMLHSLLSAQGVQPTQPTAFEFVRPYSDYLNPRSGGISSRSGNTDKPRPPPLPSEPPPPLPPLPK
Method Notes: CDK9 enzyme inhibitory activity (ADP-Glo kinase assay)
Assay type: biochemical
Settings: CDK9 enzyme activity; compound 100 nM; average of two independent repeats; read-out: Inhibition rate at different concentrations (%) 100 nM
Assay Endpoint: inhibition at 0.1 µM (%)

{"columns": ["Compound", "Result"],
 "data": [
  ["CC1(C)Cc2c(-c3cc(NC(=O)NC4CCC(N5CCOCC5)CC4)ncc3Cl)cnn2C1 (stereo not drawn)", 93.7],
  ["CCNC1CCCC(NC(=O)Nc2cc(-c3cnn4c3CC(C)(C)C4)c(Cl)cn2)C1 (stereo not drawn)", 80]
]}

[1] COc1cc(F)ccc1-c1ccnc(NC(=O)NC2CC(N)C2)c1 (stereo not drawn)
[2] COc1cc(F)ccc1-c1ccnc(NC(=O)NC2CCC(NC(C)=O)CC2)c1 (stereo not drawn)
Enquiry: Sorting ascending by inhibition at 0.1 µM, which comes first: 1 or 2 ? Output the label that corresponds to your choice.
Return: 1
